The origin of these recorded values is PubChem BioAssay (NCI).

# System: OVCAR-3 ovarian
# EXPERIMENT DESCRIPTION: NCI tumour cell line growth inhibition, 48 h
Exercise: state measured TGI for each of the compounds provided.

Lab note: measured TGI of `N#CC(C#N)=C1CCCCc2ccc([N+](=O)[O-])cc21` was > 100 µM

Lab note: measured TGI of CC(C)=CCC/C(C)=C/CC/C(=C/COP(=O)(OCc1ccc([N+](=O)[O-])o1)N(C)CCCCCl)C(C)(C)C (stereo not given) was 3.66 µM

Lab note: measured TGI of O=S1c2ccc(Cl)cc2CC(SSC2Cc3cc(Cl)ccc3S(=O)c3ccccc32)c2ccccc21 (stereo not given) was > 100 µM

Lab note: measured TGI of O=C(CC1(O)C(=O)Nc2c(Cl)cc(Cl)cc21)c1ccc2ccccc2c1 (stereo not given) was 18.6 µM

Lab note: measured TGI of `CCCC(=O)NNc1[nH]c(-c2ccc(OC)cc2)cc1C(=O)OCC` was 31.1 µM

###

# System: SF-539 CNS
# EXPERIMENT DESCRIPTION: NCI tumour cell line growth inhibition, 48 h; in the data active means GI50 below about 0.43 µM; inactive means the rest
Pick from t = active, f = inactive when you respond.

// query Dear all, I need the recorded test outcome for `COc1cc2c(cc1OC)[C@@]1(C)C(=O)c3cc4c(cc3[C@H]1N(C)C2=O)OCO4` , thank you.
// result f

// query Dear all, I need the recorded test outcome for `C[C@]12CCC(=O)C=C1CC[C@@H]1[C@@H]2CC[C@]2(C)C(=O)/C(=C/c3cccc(OCCN4CCOCC4)c3)C[C@@H]12` , thank you.
// result f

// query Dear all, I need the recorded test outcome for CO[C@H](C(=O)N[C@@H](CCCCNC(=O)OCc1ccccc1)C(=O)OC(C)(C)C)[C@@H]1Cc2cc3cc(OC4CC(OC5CC(O)C(O)C(C)O5)C(O)C(C)O4)c(C)c(O)c3c(O)c2C(=O)[C@H]1OC1CC(OC2CC(OC3CC(C)(O)C(O)C(C)O3)C(O)C(C)O2)C(O)C(C)O1 (some centres not stated) , thank you.
// result f

// query Dear all, I need the recorded test outcome for `O=C1/C(=C/c2ccc(Cl)cc2)CN(C(=O)C(Cl)Cl)C/C1=C\c1ccc(Cl)cc1` , thank you.
// result t

// query Dear all, I need the recorded test outcome for `C#C[C@@]1(O)[C@@H](CO)O[C@@H](n2cc(F)c3c(N)ncnc32)[C@@H]1O` , thank you.
// result f

// query Dear all, I need the recorded test outcome for CC(C)=CCC/C(C)=C/CC/C(=C/COP(=O)(OCc1ccc([N+](=O)[O-])o1)N(C)CCCCCl)C(C)(C)C (configuration not stated) , thank you.
// result f

// query Dear all, I need the recorded test outcome for `CO[C@H]1CC[C@@]2(C)C(=CC[C@H]3[C@@H]4C[C@H](O)C[C@@]4(C)CC[C@@H]32)C1` , thank you.
// result f

###

# Test system: MOLT-4 leukemia
# EXPERIMENT DESCRIPTION: NCI tumour cell line growth inhibition, 48 h; in the data active = GI50 below about 0.43 µM; inactive = the rest
Pick from 1.0 for active, 0.0 for inactive when you respond.

// query Dear all, I need the recorded test outcome for `Cc1ccc(S(=O)(=O)n2cc(C(=O)C(=O)Nc3ccncc3)c3ccccc32)cc1` , thank you.
// result 0.0

// query Dear all, I need the recorded test outcome for CC(=O)OCC1OC(S[As](C)C)C(OC(C)=O)C1OC(C)=O (centres undefined) , thank you.
// result 1.0

// query Dear all, I need the recorded test outcome for `CO[C@H]1CC[C@@]2(C)C(=CC[C@H]3[C@@H]4C[C@H](O)C[C@@]4(C)CC[C@@H]32)C1` , thank you.
// result 0.0

// query Dear all, I need the recorded test outcome for `C/C(=C\c1ccn(-c2ccc(N)cc2)n1)[C@@H]1C[C@@H]2O[C@]2(C)CCC[C@H](C)[C@H](O)[C@@H](C)C(=O)C(C)(C)[C@@H](O)CC(=O)O1` , thank you.
// result 1.0

// query Dear all, I need the recorded test outcome for `COc1cc2c(cc1OC)[C@@]1(C)C(=O)c3cc4c(cc3[C@H]1N(C)C2=O)OCO4` , thank you.
// result 0.0

// query Dear all, I need the recorded test outcome for `CCC[CH2][Sn]([CH2]CCC)([S]C1=NCCS1)[S]C1=NCCS1` , thank you.
// result 1.0

// query Dear all, I need the recorded test outcome for `Clc1ccc(CO/N=C(\Cn2ccnc2)c2ccc(Cl)cc2Cl)c(Cl)c1` , thank you.
// result 0.0

// query Dear all, I need the recorded test outcome for `O=C1/C(=C/c2ccc(Cl)cc2)CN(C(=O)C(Cl)Cl)C/C1=C\c1ccc(Cl)cc1` , thank you.
// result 1.0

// query Dear all, I need the recorded test outcome for `CCNc1nc(N2CC(=O)Nc3cc(OC)ccc32)c2ccccc2n1` , thank you.
// result 1.0
